- System: L. pifanoi axenic amastigotes
- experiment-summary: Leishmanicidal assay on axenic amastigotes (inhibition of MTT reduction)
- Format: cell-based, Leishmania pifanoi
- condition-details: Leishmania pifanoi; Table 1; 96 h; read-out: L. pifanoi amast. ax EC50
measured-parameter: pEC50
Keep in mind that pEC50 stands for -log10 of concentration in molar terms.

Query: Please tell me the measured pEC50 for O=c1sn(-c2cccc3ccccc23)c(=O)n1Cc1ccccc1 [Compound 2, tideglusib] ; system: L. pifanoi axenic amastigotes.
Result: 5.15

###

- measured-target: UniProtKB A6N857
- experiment-summary: Inhibition of LdGSK-3 with Kinase Glo
- Type: biochemical
- condition-details: Table S2; 10 µM
If the reported % inhibition @ 10µM (initial screening on LdGSK3) equals or exceeds 20%, assign MET. If not, assign NOT MET.

Solved cases below.
1) N#Cc1cc(-c2ccnc(Nc3cccc(CN4CCOCC4)c3)n2)ccc1NCCN	MET
2) COc1ccc(Nc2nc(-c3ccccn3)cc(N3CCCC(O)C3)n2)cc1 (stereo not drawn)	NOT MET

Query: API: above_or_equal(metric=% inhibition @ 10µM (initial screening on LdGSK3), cutoff=20%) for item COc1ccccc1C1CC(c2ccc(NS(C)(=O)=O)cc2)=NN1C(=O)c1cccs1 (stereo not drawn)
Result: NOT MET

Query: API: above_or_equal(metric=% inhibition @ 10µM (initial screening on LdGSK3), cutoff=20%) for item COc1cc(C2SCC(=O)Nc3c2c(C)nn3-c2nc3ccccc3s2)cc(OC)c1O (stereo not drawn)
Result: MET

Query: API: above_or_equal(metric=% inhibition @ 10µM (initial screening on LdGSK3), cutoff=20%) for item Br.Fc1ccc(Nc2nc(-c3ccccn3)cs2)cc1
Result: NOT MET

Query: API: above_or_equal(metric=% inhibition @ 10µM (initial screening on LdGSK3), cutoff=20%) for item CCOc1ccc(Nc2ccc(S(=O)(=O)N3CCN(C)CC3)cc2[N+](=O)[O-])cc1OCC
Result: NOT MET

Query: API: above_or_equal(metric=% inhibition @ 10µM (initial screening on LdGSK3), cutoff=20%) for item C=CCN(Cc1cccs1)C(=O)CSc1nnc(-c2ccc3c(c2)OCO3)o1
Result: NOT MET

Query: API: above_or_equal(metric=% inhibition @ 10µM (initial screening on LdGSK3), cutoff=20%) for item COCc1cc(Nc2ccc(Cl)cc2)nc(-c2ccccn2)n1
Result: NOT MET

Query: API: above_or_equal(metric=% inhibition @ 10µM (initial screening on LdGSK3), cutoff=20%) for item O=C(Nc1nc(-c2ccc(F)cc2)cs1)c1ccc([N+](=O)[O-])s1
Result: NOT MET

###

The following compounds are shown together with reported % inhibition @ 10µM (initial screening on LdGSK3) values.
- measured-target: LdGSK-3 (Leishmania donovani, UniProt A6N857)
- Sequence (A6N857 entry or part of it): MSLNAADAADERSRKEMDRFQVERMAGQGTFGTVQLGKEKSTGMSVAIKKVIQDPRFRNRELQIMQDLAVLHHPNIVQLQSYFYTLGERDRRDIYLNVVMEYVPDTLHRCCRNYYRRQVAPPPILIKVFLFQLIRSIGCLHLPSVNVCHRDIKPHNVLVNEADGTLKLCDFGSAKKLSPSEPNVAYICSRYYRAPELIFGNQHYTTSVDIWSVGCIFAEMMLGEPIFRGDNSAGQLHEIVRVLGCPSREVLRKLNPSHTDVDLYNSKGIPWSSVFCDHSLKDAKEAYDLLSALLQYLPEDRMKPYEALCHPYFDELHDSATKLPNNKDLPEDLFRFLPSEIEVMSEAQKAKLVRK
- experiment-summary: Inhibition of LdGSK-3 with Kinase Glo
- Type: biochemical
- condition-details: Table S2; 10 µM
Write the number in % without appending the unit.

1. COc1cc(OC)cc(C(NS(=O)(=O)c2ccc(Cl)c(C(F)(F)F)c2)c2nccn2C)c1 (stereo not drawn) [Compound 139]	15.95
2. O=C(CN(Cc1ccccn1)Cc1ccccn1)NC1Cc2ccccc2C1.O=C(O)C(F)(F)F [Compound 58]	3.75

Query: Report % inhibition @ 10µM (initial screening on LdGSK3) for Cc1cn[nH]c1C1CCCN(Cc2nc3ccccc3n2C)C1 (stereo not drawn) [Compound 114]
Result: 2.85

Query: Report % inhibition @ 10µM (initial screening on LdGSK3) for CC(C)(C)c1cc(NC2CC2)nc(-c2ccccn2)n1 [Compound 50]
Result: 4.70

# credit: paper PMC6882465
